FYI, the data here is from patent US20160187321A1.

system: Anopheles gambiae Kv2 (AgKv2) channel (Accession # XM_315955.4) expressed in HEK293 cells; conditions: read-out: EC50 (TEA inhibition of K+ current); FIG. 6E; HEK293 cells with AgKv2 gene, CMV promoter, tetracycline-induced (w/ TC); whole cell patch clamp, holding potential −80 mV, steps up to +100 mV
Measurement name: EC50 (µM)
Numbers only, in µM.

Incoming: Sample CC[N+](CC)(CC)CC [TEA, tetraethylammonium] — what was its EC50?
Outgoing: 1300
